- run-description: basal S. cerevisiae growth modulation, no modifier, primary screen, OD600, strain BY4716, 24 h, basal condition (AID 1173)
- setup-conditions: OD600, 24 h, higher = more signal, called active from +8 up or from −8 down
observable: z-score
Give bare numbers.

Reference set, count: 5
| molecule | z-score |
| --- | --- |
| CC(C)(C)OC(=O)CC[C@@]1(C(=O)O)N=C(c2ccc(OCCCO)cc2)O[C@@H]1c1ccccc1 | 0.313 |
| COC(=O)C1(Cc2ccccc2)C=C2C(=C(c3ccccc3)C(=O)C2C)CN1 (stereo unspecified) | 0.369 |
| C[C@@H](OCc1ccccc1)C1NC(=O)[C@@]23C(=O)N[C@@H](Cc4ccccc4)C2[C@H](C)[C@@]2(C)O[C@H]2C3/C=C/C/C=C\CNC(=O)CNC1=O (stereo partly specified) | -0.303 |
| CC1CC/C=C\[C@H]2OC34C=CCN(CCN5CCOCC5)C(=O)[C@H]3N(CCO)C(=O)[C@@H]4C2C(=O)O1 (stereo partly specified) | -0.158 |
| CCCc1cccc(=O)o1 | 0.68 |

Would you be so kind as to report z-score for each listed record?
1. COCCCNC(=O)[C@]1(Cc2ccccc2N=[N+]=[N-])N=C(c2ccc(OCCCO)cc2)O[C@@H]1c1ccccc1N=[N+]=[N-]
2. CCCCN1CC=CC23O[C@@H]4C=CCOC(=O)[C@@H]4[C@H]2C(=O)N(C(C)CO)[C@@H]3C1=O (stereo partly specified)
3. COc1ccc([Si](C)(C)[C@H]2[C@H](CC(=O)N3Cc4ccccc4C[C@H]3CO)O[C@@]3(C(=O)N(Cc4cccc(N5CCCCC5=O)c4)c4ccccc43)[C@@H]2C)cc1
4. C=CCOC(=O)[C@H]1[C@@H]2C(=O)O[C@@H](c3ccccc3)[C@@H](c3ccccc3)N2[C@@H](c2ccc(OCCOC(=O)[C@H]3C[C@H]4C(=O)N[C@@H](CCCC[N+](C)(C)C)C(=O)N4[C@H]3c3cccc(OCCO)c3)cc2)[C@]12C(=O)Nc1ccc(I)cc12
5. CCOC(=O)C1=CC[C@@H](c2ccccc2C(F)(F)F)N(S(=O)(=O)c2ccc(C)cc2)C1
6. C=C1C2CC3C(=C4C(CO[C@@H]4[C@H]4CCCN4S(=O)(=O)c4ccccc4[N+](=O)[O-])C4C(=O)N(C)C(=O)C34)CC2C(=O)N1C (stereo partly specified)

[0.298, 0.15, -0.704, 1.44, -3.44, -1.05]

* * *

- System: Noggin (protein binding on small-molecule microarray)
- run-description: Noggin binders on small-molecule microarray, primary screen, biochemical, 635/667 nm fluorescence (AID 1095);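 also: score merges 667 nm feature fluorescence with signal to noise over triplicate slides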
- setup-conditions: 635 nm fluorescence, higher = more signal
Assignment: determine reported composite z-score for the given compounds.
Give bare numbers.

Reference set, count: 2
| compound | composite z-score |
| --- | --- |
| NCCCCCCNC(=O)[C@H]1C[C@H]2C(=O)N[C@@H](Cc3ccccc3)C(=O)N2[C@H]1c1ccc(O)cc1 | 1.07 |
| O=C1C[C@@](C(=O)NCC(F)(F)F)(c2ccc([N+](=O)[O-])cc2)[C@@H](c2ccc(CO)cc2)N1C1CCCCC1 | 0.956 |

Would you be so kind as to report composite z-score for each listed record?
1. CC(C)N1C(=O)[C@@]2(c3ccc([N+](=O)[O-])cc3)CC(=O)N(C3CCCCC3)[C@@H]2c2ccc(CO)cc21
2. COc1ccc(NC(=O)O[C@H]2[C@H](OC(=O)Nc3ccc4c(c3)OCO4)[C@@H](OC(=O)Nc3ccc4c(c3)OCO4)[C@@H](OC)O[C@@H]2CO)cc1

0.622
0.89

Would you be so kind as to report composite z-score for each listed record?
1. Cc1ccc(C(C)CC(O)C2C=CC3C(=O)N(c4ccccc4)C(=O)C3N2Nc2ccc(C(C)C)cc2)o1 (stereo not drawn)
2. COCCOC(=O)N1C(=O)[C@@]2(c3cc(C#CC4(O)CCCCCC4)ccc31)[C@H](c1ccccc1OCCO)N1[C@H](c3ccccc3)[C@H](c3ccccc3)OC(=O)[C@H]1[C@@H]2C(N)=O
3. C=CC[C@]1(C(=O)N(C)C)N=C(c2ccc(OCCCO)cc2)O[C@H]1c1ccccc1N=[N+]=[N-]
4. Cc1ccc(F)cc1S(=O)(=O)N[C@@H]1CCN(Cc2ccc(OC(C)C)cc2)C1

1: -0.641; 2: 1.06; 3: 0.464; 4: 0.313

Would you be so kind as to report composite z-score for each listed record?
1. CCOC(=O)C1=CC[C@@H](c2ccc([N+](=O)[O-])cc2)N(S(=O)(=O)c2ccc(C)cc2)[C@H]1c1ccccc1
2. C=CCC(OC(C)=O)[C@@H]1[C@@H](N(Cc2cc3ccccc3o2)C(=O)c2ccc(C)cc2)c2cc(OCCCO)ccc2N1C(=O)Cc1ccc2ccccc2c1 (stereo partly drawn)

1: 1.02; 2: 1.81

Would you be so kind as to report composite z-score for each listed record?
1. O=C(CS)NCCCCCCNC(=O)[C@H]1C[C@H]2C(=O)N[C@@H](Cc3ccccc3)C(=O)N2[C@H]1c1cccc(OCCO)c1
2. CC(=O)N1Cc2ccccc2C[C@]2(N=C(c3ccc(OCCCO)cc3)O[C@@H]2c2ccccc2)C1=O
3. [N-]=[N+]=Nc1ccccc1C[C@]1(C(=O)NCc2ccccc2)N=C(c2ccc(OCCCO)cc2)O[C@H]1c1ccccc1

[1.6, 0.648, 0.383]
